Catalogue of substances with associated amyloid nucleation score
protocol.details: amyloid nucleation score (Sup35N fusion, yeast selection) (log enrichment); library NNK1; higher = more nucleation; inactive = no reads after selection;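 further: zero at mode of non-aggregating sequences after 7 days selection at 30°C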
Give your answer as a number; write no unit.

Guide cases for amyloid nucleation score, answers given:
In [3]: df
Out[3]:
              substance  result_number
0    YLFMNRGTVSWRSVYDRV          0.104
1  CTWYLLVSSSRLLTDSFLPS           1.32
2  ESSIVVGCRGSGWTQDAASQ         -0.465

Name the recorded amyloid nucleation score of the item MILRVVCHLNVCS in your answer. 6.92

Name the recorded amyloid nucleation score of the item YGQIPTFHRRSQVHLCNRIW in your answer. 0.206

Name the recorded amyloid nucleation score of the item LMSLVNPTRVSLFFDH in your answer. -0.11

Name the recorded amyloid nucleation score of the item LDRFVYY in your answer. 1.41

Name the recorded amyloid nucleation score of the item IYNTYPTRRLRLQRGYYSME in your answer. -0.607

Name the recorded amyloid nucleation score of the item RFFNHPMSFANMKLRSECTR in your answer. -0.832

Name the recorded amyloid nucleation score of the item FLILLGLVEDGTLYAVRTVG in your answer. -0.849
